Target protein (sequence): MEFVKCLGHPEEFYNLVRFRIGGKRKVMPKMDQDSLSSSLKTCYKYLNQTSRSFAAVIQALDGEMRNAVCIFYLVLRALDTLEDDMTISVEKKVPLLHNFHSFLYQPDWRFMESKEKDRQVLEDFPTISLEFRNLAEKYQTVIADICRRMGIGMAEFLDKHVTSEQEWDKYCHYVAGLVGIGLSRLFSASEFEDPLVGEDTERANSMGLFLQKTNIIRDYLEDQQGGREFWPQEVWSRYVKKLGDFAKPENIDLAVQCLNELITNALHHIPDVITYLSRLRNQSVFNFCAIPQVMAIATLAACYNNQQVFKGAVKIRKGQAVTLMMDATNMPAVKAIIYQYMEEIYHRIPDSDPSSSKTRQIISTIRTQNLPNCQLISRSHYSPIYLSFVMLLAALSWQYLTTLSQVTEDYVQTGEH
property-name: pIC50
Keep it numeric: pIC50 is minus log10 of the concentration in mol/L.

Challenge: Which pIC50 reading was recorded for the compound C[C@@H](CCCC[C@]12O[C@H](C(=O)O)[C@@](O)(C(=O)O)[C@](C(=O)O)(O1)[C@H](OC(=O)CC/C=C/[C@@H](C)CCCc1ccccc1)[C@H]2O)Cc1ccccc1 ?
Response given: 9.70

Challenge: And C[C@H](/C=C/CCC(=O)O[C@@H]1[C@@H](O)[C@@]2(CC/C=C/[C@H](C)CCCc3ccccc3)O[C@H](C(=O)O)[C@@](O)(C(=O)O)[C@]1(C(=O)O)O2)CCCc1ccccc1 ?
Response given: 8.40
